// data source = ChEMBL document CHEMBL1275270

Experiment: Antioxidant activity assessed as inhibition of HOCl-induced oxidation of DHR by rhodamine 123 staining
Type: functional

Compound | IC50, µM
COC(=O)C(Cc1c(CC=C(C)C)[nH]c2ccccc12)N1C(=O)c2ccccc2C1=O (centres undefined) | 7.18
CC(C)CCn1cc(CCN2C(=O)c3ccccc3C2=O)c2ccccc21 | 10.6
CC(C)=CCn1cc(CCN2C(=O)c3ccccc3C2=O)c2ccccc21 | 6.34
N[C@@H](Cc1c[nH]c2ccccc12)C(=O)O | 3.5

====

Some compounds, each annotated with its measured fold change (FC).
Test: Antioxidant activity assessed as trolox equivalent of peroxyl radical scavenging activity by ORAC assay
Assay type: functional
Quantity Measured: fold change (FC)

Compound | Value Measured
COC(=O)[C@H](Cc1cn(CCCc2ccccc2)c2ccccc12)NC(C)=O | 0.44
COC(=O)C(Cc1c(CCC(C)C)[nH]c2ccccc12)N1C(=O)c2ccccc2C1=O (stereo not drawn) | 0.97
NCCc1c[nH]c2ccccc12 [TRYPTAMINE] | 1.86
COC(=O)[C@H](Cc1cn(C/C=C/c2ccccc2)c2ccccc12)NC(C)=O | 0.44
COC(=O)[C@H](Cc1cn(CC=C(C)C)c2ccccc12)NC(C)=O | 0.21
COC(=O)[C@H](Cc1cn(CCC(C)C)c2ccccc12)NC(C)=O | 0.28
COC(=O)C(Cc1c(CC=C(C)C)[nH]c2ccccc12)N1C(=O)c2ccccc2C1=O (stereo not drawn) | 0.45
O=C1c2ccccc2C(=O)N1CCc1c[nH]c2ccccc12 | 1.46
CC(C)=CCn1cc(CC(N)C(=O)O)c2ccccc21 (stereo not drawn) | 1.05
COC(=O)C(Cc1cn(CC=C(C)C)c2ccccc12)N1C(=O)c2ccccc2C1=O (stereo not drawn) | 0.36
CC(C)=CCc1[nH]c2ccccc2c1CC(N)C(=O)O (stereo not drawn) | 0.48
COC(=O)C(Cc1c[nH]c2ccccc12)N1C(=O)c2ccccc2C1=O (stereo not drawn) | 1.09
